Molecular target: HIV-1 PR (Human immunodeficiency virus type 1 group M subtype B, UniProt P04585)
Experiment: HIV-protease inhibitory activity assay (FRET peptide substrate)
Conditions: Test Example 1
Quantity kind: IC50

Solved entries (count: 3):
CC(C)CN(C[C@@H](O)[C@H](Cc1ccccc1)NC(=O)O[C@H]1CO[C@@]2(C)OCC[C@@H]12)S(=O)(=O)c1ccc2nc(NCCCCOc3ccc(-c4sc5c(c4C(=O)O)CC(C)(C)CC5)cc3)sc2c1 [Compound I-27] :: 3.7 nM
CC(C)CN(CC(O)C(Cc1ccc(NCc2ccccc2-c2sc3c(c2C(=O)O)CC(C)(C)CC3)cc1)NC(=O)OC1COC2(C)OCCC12)S(=O)(=O)c1ccc2nc(O)sc2c1 (centres unmarked) [Compound I-482] :: 2.27 nM
COc1ccc(S(=O)(=O)N(CC(C)C)CC(O)C(Cc2ccc(NCc3cc(Oc4cccc5cccnc45)ccc3-c3sc4c(c3C(=O)O)CC(C)(C)CC4)cc2)NC(=O)OC2COC3(C)OCCC23)cc1 (centres unmarked) [Compound I-684] :: 2.83 nM

For the molecule shown here, COc1ccc(S(=O)(=O)N(CC(C)C)CC(O)C(Cc2ccc(N3CCC(Oc4ccccc4-c4sc5c(c4C(=O)O)CC(C)(C)CC5)C3)cc2)NC(=O)OC2COC3(C)OCCC23)cc1 (centres unmarked) [Compound I-235] , give the reported IC50.
3.56 nM

For the molecule shown here, COc1ccc(S(=O)(=O)N(CC(C)C)CC(O)C(Cc2ccc(NCc3cc(O)cc(-c4sc5c(c4C(=O)O)CC(C)(C)CC5)c3)cc2)NC(=O)OC2COC3(C)OCCC23)cc1 (centres unmarked) [Compound I-562] , give the reported IC50.
1.98 nM
